Target: T1, CHO-hu α11 (Homo sapiens, UniProt Q9UKX5)
T1 construct: expressed in transfected cells; host or cells: CHO-K1
T1 sequence (Q9UKX5 23-1188): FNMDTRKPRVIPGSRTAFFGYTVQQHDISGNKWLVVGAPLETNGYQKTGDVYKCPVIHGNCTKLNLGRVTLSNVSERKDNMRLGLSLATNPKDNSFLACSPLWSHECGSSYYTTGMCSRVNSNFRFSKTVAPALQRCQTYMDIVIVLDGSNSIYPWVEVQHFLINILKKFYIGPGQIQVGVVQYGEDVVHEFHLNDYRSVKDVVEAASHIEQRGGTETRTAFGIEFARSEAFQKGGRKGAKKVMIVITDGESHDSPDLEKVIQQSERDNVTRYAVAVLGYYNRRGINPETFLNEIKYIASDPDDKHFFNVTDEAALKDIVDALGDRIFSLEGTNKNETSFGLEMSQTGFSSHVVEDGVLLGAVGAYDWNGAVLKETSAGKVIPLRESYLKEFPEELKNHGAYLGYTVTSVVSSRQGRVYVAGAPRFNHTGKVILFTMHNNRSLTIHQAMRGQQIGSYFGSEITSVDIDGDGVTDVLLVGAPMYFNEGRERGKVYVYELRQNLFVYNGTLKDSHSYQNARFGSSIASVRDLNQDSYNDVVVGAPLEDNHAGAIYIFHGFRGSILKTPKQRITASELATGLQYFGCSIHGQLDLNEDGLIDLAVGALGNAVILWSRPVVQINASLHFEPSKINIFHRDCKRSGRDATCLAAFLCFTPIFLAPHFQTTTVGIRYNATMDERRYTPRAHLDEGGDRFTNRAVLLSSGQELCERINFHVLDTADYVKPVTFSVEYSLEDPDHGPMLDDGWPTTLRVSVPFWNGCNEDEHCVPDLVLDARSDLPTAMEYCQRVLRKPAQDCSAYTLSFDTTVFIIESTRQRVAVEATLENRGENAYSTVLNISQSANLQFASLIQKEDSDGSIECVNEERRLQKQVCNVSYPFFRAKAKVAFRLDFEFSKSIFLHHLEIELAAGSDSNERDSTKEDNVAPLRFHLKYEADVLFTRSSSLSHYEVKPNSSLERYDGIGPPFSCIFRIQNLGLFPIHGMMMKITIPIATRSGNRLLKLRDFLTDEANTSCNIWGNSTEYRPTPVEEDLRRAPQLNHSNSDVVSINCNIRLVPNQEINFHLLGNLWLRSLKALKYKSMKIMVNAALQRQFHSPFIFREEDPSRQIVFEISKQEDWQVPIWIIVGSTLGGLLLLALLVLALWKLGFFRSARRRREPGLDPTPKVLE
T1 sequence (P05556 21-798 partner): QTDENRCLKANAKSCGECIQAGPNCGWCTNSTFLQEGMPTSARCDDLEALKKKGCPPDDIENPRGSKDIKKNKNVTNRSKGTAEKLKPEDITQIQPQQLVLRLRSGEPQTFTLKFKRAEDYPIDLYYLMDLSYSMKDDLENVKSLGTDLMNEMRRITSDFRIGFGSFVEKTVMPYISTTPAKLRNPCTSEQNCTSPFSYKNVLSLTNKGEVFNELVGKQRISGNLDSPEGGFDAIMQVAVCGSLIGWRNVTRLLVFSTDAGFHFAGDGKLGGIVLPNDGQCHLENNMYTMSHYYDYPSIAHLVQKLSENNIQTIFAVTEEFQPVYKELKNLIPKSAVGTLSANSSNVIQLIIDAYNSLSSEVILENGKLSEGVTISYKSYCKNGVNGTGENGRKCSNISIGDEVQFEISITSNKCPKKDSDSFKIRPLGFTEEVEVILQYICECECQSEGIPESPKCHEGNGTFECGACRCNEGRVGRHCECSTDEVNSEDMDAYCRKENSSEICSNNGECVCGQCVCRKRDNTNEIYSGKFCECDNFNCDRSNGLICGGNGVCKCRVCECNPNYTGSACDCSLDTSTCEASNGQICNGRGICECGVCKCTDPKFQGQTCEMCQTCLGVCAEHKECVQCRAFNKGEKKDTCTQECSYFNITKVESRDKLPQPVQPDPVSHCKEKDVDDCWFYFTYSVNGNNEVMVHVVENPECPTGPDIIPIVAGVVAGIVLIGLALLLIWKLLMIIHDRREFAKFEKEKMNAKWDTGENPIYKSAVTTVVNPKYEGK
Test: Cell adhesion inhibition on type I collagen (xCelligence)
Type: cell-based
Conditions: Table 11, 1994-01-C7 variants, FIG. 4C; read-out: Inhibition of Cell Adhesion IC50

Molecule	IC50
1994-01-C7 (#9): anti-α11β1 monoclonal antibody from human phage display; VH SEQ ID NO: 32, VL SEQ ID NO: 37 (antibody, V domains shown) VH: QVQLVQSGAEVKKPGASVKVSCKASGYTFTSYGISWVRQAPGQGLEWMGWISAYNGNTNYAQKLQGRVTMTTDTSTSTAYMELRSLRSDDTAAYYCARVTGITGTTIDPWGQGTMVTVSS VL: DIQMTQSPSSLSASVGDRVTITCRASQSISSYLNWYQQKPGKAPKLLIYDASSLESGVPSRFSGSGSGTEFTLTISSLQPDDFAVYYCQQYNNWPQTFGQGTKVEIK	3.4 nM
